# Tested on: HCI03 (cells of an ER-positive luminal breast cancer xenograft);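 note: PDX cells carrying CMV promoter-driven luciferase, viability read as total photon flux per second by IVIS imaging following D-luciferin, vehicle control 0.1% DMSO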
# ASSAY INFO: cell viability (% of vehicle); higher = less cytotoxic
# CONDITION SUMMARY: 10 µM; 72 h
Each entry below carries its reported cell viability.
ASSAY READOUT: cell viability

1) COc1cc2c(c(OC)c1OC)-c1ccc(OC)c(=O)cc1C(NC(C)=O)CC2 (stereo not given) :: 109
2) Cl.NCC1(CC(=O)O)CCCCC1 [Gabapentin HCl] :: 121
3) C[C@]12CC[C@H]3[C@@H](CC[C@@]45O[C@@H]4C(O)=C(C#N)C[C@]35C)[C@@H]1CC[C@@H]2O :: 119
4) C[C@]12COC(=O)C[C@@H]1CC[C@@H]1[C@@H]2CC[C@@]2(C)[C@H]1CC[C@]2(C)O :: 108
5) CN(C)C1C(=O)C(C(N)=O)=C(O)C2(O)C(=O)C3=C(O)c4c(O)cccc4C(C)(O)C3C(O)C12 (stereo not given) :: 126
6) Cc1cccc(C)c1NC(=O)CN1CCCC1=O :: 128
7) CC(=Cc1csc(C)n1)C1CC2OC2(C)CCCC(C)C(O)C(C)C(=O)C(C)(C)C(O)CC(=O)O1 (stereo not given) [Epothilone B (EPO906, Patupilone)] :: 119
8) C#CC1(O)C=CC2C3CCC4=CC(=O)CCC4C3CCC21CC (stereo not given) :: 149
9) CCCCCCCCCCCCCCCC[N+](C)(C)C.[Br-] [Cetrimonium Bromide (CTAB)] :: 56.5
10) CC(=O)Nc1cc([As](=O)(O)O)ccc1O :: 144
11) O=P1(N(CCCl)CCCl)NCCCO1 (stereo not given) [Cyclophosphamide] :: 98
12) CNCC(=O)c1ccc(O)c(O)c1.Cl [Adrenalone HCl] :: 116
13) Cc1cccc(C)c1NC1=NCCCS1.Cl [Xylazine HCl] :: 120
14) CNC1CC(N)C(O)C(OC2OC(CO)C(O)C3OC4(OC(C(N)CO)C(O)C(O)C4O)OC23)C1O (stereo not given) :: 70.2
15) Cc1cc(C(C#N)c2ccc(Cl)cc2)c(Cl)cc1NC(=O)c1cc(I)cc(I)c1O (stereo not given) :: 104
16) CCOC(=O)c1cncn1C(C)c1ccccc1 (stereo not given) [Etomidate] :: 89.8
17) Cc1ccc(-n2nccn2)c(C(=O)N2CCN(c3nc4cc(Cl)ccc4o3)CCC2C)c1 (stereo not given) :: 88
18) C=CCN1CCC23c4c5ccc(O)c4OC2C(=O)CCC3(O)C1C5.Cl (stereo not given) [Naloxone HCl] :: 125
19) Cl.NCCc1c[nH]c2ccc(O)cc12 [Serotonin HCl] :: 132
20) CN1c2ccccc2C(NCCCCCCC(=O)[O-])c2ccc(Cl)cc2S1(=O)=O.[Na+] (stereo not given) [Tianeptine sodium] :: 134
21) COc1ccc(C(CN(C)C)C2(O)CCCCC2)cc1.Cl (stereo not given) :: 139
22) Oc1cc(Cl)ccc1Oc1ccc(Cl)cc1Cl :: 109
23) CN1C2CCC1CC(OC(=O)C(CO)c1ccccc1)C2.CN1C2CCC1CC(OC(=O)C(CO)c1ccccc1)C2.O.O=S(=O)(O)O (stereo not given) :: 134
24) NC(Cc1ccc(N(CCCl)CCCl)cc1)C(=O)O (stereo not given) :: 116
25) OC(c1ccccc1)(c1ccccc1)C1CCNCC1 :: 137
26) Cc1cccc(Cc2cnc[nH]2)c1C.Cl [Detomidine HCl] :: 114
27) CN1C(=O)CCS(=O)(=O)C1c1ccc(Cl)cc1 (stereo not given) :: 118
28) CCC(COC(=O)c1cc(OC)c(OC)c(OC)c1)(c1ccccc1)N(C)C (stereo not given) :: 109
29) N/C(N)=N\N.Cl [Aminoguanidine hydrochloride] :: 105
30) O=S(=O)(F)Cc1ccccc1 :: 127
